Values from patent US20260184712A1

Kindly supply the reported IC50 values for the records listed here.
# target-desc: human ENT1 (Homo sapiens)
# Construct: JAR cells expressing ENT1 were purchased from ATCC; host or cells: JAR cells
# protocol-description: ENT1 binding assay (competition with Sahenta-DY647 on JAR cells)
# condition-info: competition with SAHENTA-DY647 binding; IC50 categorized; read-out: Binding Assay IC50

Ask: Can you share its IC50? I mean this compound: C[C@H]1O[C@@H](n2cnc3c(OCc4ccc(-n5cccn5)cc4)ncnc32)[C@H](O)[C@@H]1O
Reply: > 500 nM

Ask: Can you share its IC50? I mean this compound: O=[N+]([O-])c1ccc(COc2ncnc3c2ncn3[C@@H]2O[C@H](CCCO)[C@@H](O)[C@H]2O)cc1
Reply: 20 to 500 nM

Ask: Can you share its IC50? I mean this compound: C[C@H]1O[C@@H](n2c(NCCN3CCN(C)CC3)nc3c(OCc4ccc([N+](=O)[O-])cc4)ncnc32)[C@H](O)[C@@H]1O
Reply: 20 to 500 nM

Ask: Can you share its IC50? I mean this compound: C[C@H]1O[C@@H](n2cnc3c(C(=O)N4CCC(c5ccc([N+](=O)[O-])cc5)CC4)ncnc32)[C@H](O)[C@@H]1O
Reply: > 500 nM

###

# target-desc: human ENT1 (Homo sapiens, UniProt Q99808)
# Construct: JAR cells expressing ENT1 were purchased from ATCC; host or cells: JAR cells
# Sequence (Q99808 whole entry): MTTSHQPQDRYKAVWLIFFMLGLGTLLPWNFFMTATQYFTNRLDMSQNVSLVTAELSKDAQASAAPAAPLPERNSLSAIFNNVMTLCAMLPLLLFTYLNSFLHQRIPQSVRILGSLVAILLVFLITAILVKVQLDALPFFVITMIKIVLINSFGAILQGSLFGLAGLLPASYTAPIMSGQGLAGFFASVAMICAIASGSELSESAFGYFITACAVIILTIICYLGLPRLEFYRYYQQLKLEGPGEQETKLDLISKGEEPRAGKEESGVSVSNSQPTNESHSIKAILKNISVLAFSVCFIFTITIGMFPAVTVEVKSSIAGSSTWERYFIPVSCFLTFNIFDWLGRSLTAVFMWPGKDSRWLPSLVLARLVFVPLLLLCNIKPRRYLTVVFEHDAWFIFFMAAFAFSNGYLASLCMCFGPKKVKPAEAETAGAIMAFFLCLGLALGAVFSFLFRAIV
# protocol-description: ENT1 binding assay (competition with Sahenta-DY647 on JAR cells)
# condition-info: competition with SAHENTA-DY647 binding; IC50 categorized; read-out: Binding Assay IC50
pIC50: −log10 of the molar value.
Kindly supply the reported pIC50 values for the records listed here.

Ask: Field: pIC50 (human ENT1 (Homo sapiens, UniProt Q99808)). Entry: C[C@H]1O[C@@H](n2c(-c3cn[nH]c3)nc3c(OCc4ccc([N+](=O)[O-])cc4)ncnc32)[C@H](O)[C@@H]1O
Reply: 6.30 to 7.70

Ask: Field: pIC50 (human ENT1 (Homo sapiens, UniProt Q99808)). Entry: CCNc1nc2c(OCc3ccc(OC(F)F)cc3)ncnc2n1[C@@H]1O[C@H](C)[C@@H](O)[C@H]1O
Reply: 7.70 to 9.00

Ask: Field: pIC50 (human ENT1 (Homo sapiens, UniProt Q99808)). Entry: C[C@H]1O[C@@H](n2cnc3c(COc4ccc(OCF)cc4)ncnc32)[C@H](O)[C@@H]1O
Reply: < 6.30

Ask: Field: pIC50 (human ENT1 (Homo sapiens, UniProt Q99808)). Entry: C[C@H]1O[C@@H](n2c(NC3CCC(O)C3)nc3c(OCc4ccc([N+](=O)[O-])cc4)ncnc32)[C@H](O)[C@@H]1O (some centres unmarked)
Reply: > 9.00

Ask: Field: pIC50 (human ENT1 (Homo sapiens, UniProt Q99808)). Entry: COc1cc(COc2ncnc3c2ncn3[C@@H]2O[C@H](C)[C@@H](O)[C@H]2O)cc(OC)c1OC
Reply: < 6.30

Ask: Field: pIC50 (human ENT1 (Homo sapiens, UniProt Q99808)). Entry: C[C@H]1O[C@@H](n2cnc3c(N[C@H]4C[C@@H]4c4ccc(Cl)cc4)ncnc32)[C@H](O)[C@@H]1O
Reply: < 6.30

Ask: Field: pIC50 (human ENT1 (Homo sapiens, UniProt Q99808)). Entry: C[C@H]1O[C@@H](n2cnc3c(OCc4ccc([N+](=O)[O-])cc4)nc(F)nc32)[C@H](O)[C@@H]1O
Reply: < 6.30

Ask: Field: pIC50 (human ENT1 (Homo sapiens, UniProt Q99808)). Entry: CC(CCO)Nc1nc2c(OCc3ccc(C(F)(F)F)cc3)ncnc2n1[C@@H]1O[C@H](C)[C@@H](O)[C@H]1O (some centres unmarked)
Reply: 7.70 to 9.00

Ask: Field: pIC50 (human ENT1 (Homo sapiens, UniProt Q99808)). Entry: C[C@H]1O[C@@H](n2cnc3c(C(=O)N4CCCC4c4ccccc4)ncnc32)[C@H](O)[C@@H]1O (some centres unmarked)
Reply: < 6.30

Ask: Field: pIC50 (human ENT1 (Homo sapiens, UniProt Q99808)). Entry: C[C@H]1O[C@@H](n2cnc3c(OCCc4cnc(C#N)c(F)c4)ncnc32)[C@H](O)[C@@H]1O
Reply: < 6.30

Ask: Field: pIC50 (human ENT1 (Homo sapiens, UniProt Q99808)). Entry: C[C@H]1O[C@@H](n2c(N)nc3c(N4CCc5ccc([N+](=O)[O-])cc5C4)ncnc32)[C@H](O)[C@@H]1O
Reply: > 9.00

Ask: Field: pIC50 (human ENT1 (Homo sapiens, UniProt Q99808)). Entry: C[C@H]1O[C@@H](n2cnc3c(OCCc4cnc(C(F)F)nc4)ncnc32)[C@H](O)[C@@H]1O
Reply: < 6.30

Ask: Field: pIC50 (human ENT1 (Homo sapiens, UniProt Q99808)). Entry: CNS(=O)(=O)c1ccc(CSc2ncnc3c2ncn3[C@@H]2O[C@H](C)[C@@H](O)[C@H]2O)cc1
Reply: < 6.30

Ask: Field: pIC50 (human ENT1 (Homo sapiens, UniProt Q99808)). Entry: O=[N+]([O-])c1ccc(COc2ncnc3c2ncn3[C@@H]2O[C@H](CO)[C@@H](O)C2(F)F)cc1
Reply: < 6.30

###

# target-desc: human ENT1 (Homo sapiens)
# Construct: JAR cells expressing ENT1 were purchased from ATCC; host or cells: JAR cells
# protocol-description: ENT1 binding assay (competition with Sahenta-DY647 on JAR cells)
# condition-info: competition with SAHENTA-DY647 binding; IC50 categorized; read-out: Binding Assay IC50
# Experimental: Compounds of the present disclosure were assayed to show ability to bind to human ENT1. The assay is a competition between a compound of interest and Sahenta-DY647, an ENT1 inhibitor that emits fluorescence (Ex=630 nm, Em=670 nm). By measuring the fluorescence at the end of the assay, one can assess the binding potency of the compounds tested. […] The inhibitory effect of the test compound was expressed as a percentage of the inhibition of SAHENTA-DY647 binding.
Kindly supply the reported IC50 values for the records listed here.

Ask: Can you share its IC50? I mean this compound: C[C@H]1O[C@@H](n2c(NC3CCC(O)C3)nc3c(OCc4ccc(Cl)cc4)ncnc32)[C@H](O)[C@@H]1O (some centres unmarked)
Reply: 0.02 to 0.5 µM

Ask: Can you share its IC50? I mean this compound: C[C@H]1O[C@@H](n2cnc3c(OCCc4ccc([S+](C)[O-])cc4)ncnc32)[C@H](O)[C@@H]1O (some centres unmarked)
Reply: > 0.5 µM

Ask: Can you share its IC50? I mean this compound: C[C@H]1O[C@@H](n2cnc3c(C(=O)N4CCc5cc([N+](=O)[O-])ccc5C4)ncnc32)[C@H](O)[C@@H]1O
Reply: > 0.5 µM

Ask: Can you share its IC50? I mean this compound: C[C@H]1O[C@@H](n2cnc3c(OCc4cc(F)c(C#N)c(F)c4)nc(Cl)nc32)[C@H](O)[C@@H]1O
Reply: > 0.5 µM

Ask: Can you share its IC50? I mean this compound: C[C@H]1O[C@@H](n2c(NCC3CCOCC3)nc3c(OCc4ccc(Cl)cc4)ncnc32)[C@H](O)[C@@H]1O
Reply: 0.02 to 0.5 µM

Ask: Can you share its IC50? I mean this compound: C[C@H]1O[C@@H](n2c(Nc3cnn(C)c3)nc3c(OCc4ccc(OC(F)F)cc4)ncnc32)[C@H](O)[C@@H]1O
Reply: 0.001 to 0.02 µM

Ask: Can you share its IC50? I mean this compound: Cc1nc2ccc(COc3ncnc4c3ncn4[C@@H]3O[C@H](C)[C@@H](O)[C@H]3O)cc2o1
Reply: > 0.5 µM

Ask: Can you share its IC50? I mean this compound: C[C@H]1O[C@@H](n2c(NCCCS(C)(=O)=O)nc3c(OCc4ccc(C#N)cc4)ncnc32)[C@H](O)[C@@H]1O
Reply: 0.02 to 0.5 µM

Ask: Can you share its IC50? I mean this compound: C[C@H]1O[C@@H](n2cnc3c(NS(=O)(=O)Cc4ccc([N+](=O)[O-])cc4)ncnc32)[C@H](O)[C@@H]1O
Reply: > 0.5 µM

Ask: Can you share its IC50? I mean this compound: C[C@H]1O[C@@H](n2cnc3c(SCc4ccccc4S(N)(=O)=O)ncnc32)[C@H](O)[C@@H]1O
Reply: > 0.5 µM

Ask: Can you share its IC50? I mean this compound: C[C@H]1O[C@@H](n2c(NC3CCC(O)CC3)nc3c(OCc4ccc(OC(F)F)cc4)ncnc32)[C@H](O)[C@@H]1O (some centres unmarked)
Reply: < 0.001 µM

Ask: Can you share its IC50? I mean this compound: C[C@H]1O[C@@H](n2c(N)nc3c(OCc4ccccc4)ncnc32)[C@H](O)[C@@H]1O
Reply: > 0.5 µM

Ask: Can you share its IC50? I mean this compound: C[C@H]1O[C@@H](n2cnc3c(OCc4ccc([N+](=O)[O-])cc4)nccc32)[C@H](O)[C@@H]1O
Reply: > 0.5 µM

Ask: Can you share its IC50? I mean this compound: C[C@H]1O[C@@H](n2cnc3c(C(=O)NCc4ccc(Cl)cc4F)ncnc32)[C@H](O)[C@@H]1O
Reply: > 0.5 µM
